# measured-target: P/Q-type channels (α1A+α2δ+β1b cDNA subunits) (UniProt P54282)
# procedure-details: Whole cell patch clamp, tonic and frequency dependent block, P/Q-type channels in HEK 293 (Example 5)
# Assay type: cell-based
# condition-details: Table 4 summary, 0.2 Hz, P/Q-type; unit not given in Table 4 (μM in Table 2); read-out: P/Q (IC50 values)
# Procedure: N-type calcium channel blocking activity was assayed in human embryonic kidney cells, HEK 293, stably transfected with the rat brain N-type calcium channel subunits (α1B+α2δ+β1b cDNA subunits). […] Whole cell patch clamp experiments were performed using an Axopatch 200B amplifier (Axon Instruments, Burlingame, Calif.) linked to a personal computer equipped with pCLAMP software. […] Data were analyzed using Clampfit (Axon Instruments) and SigmaPlot 4.0 (Jandel Scientific). […]
endpoint: IC50

{"molecule": "O=C(CCCCC(c1ccccc1)c1ccccc1)N1CCC(NCC2CCCCC2)CC1", "endpoint": "IC50", "observed": "0.07 µM"}
{"molecule": "Nc1ccc(/C=C/C(=O)N2CCN(C(=O)CCCCC(c3ccccc3)c3ccccc3)CC2)cc1", "endpoint": "IC50", "observed": "0.12 µM"}
{"molecule": "COc1ccc(/C=C/C(=O)N2CCN(C(=O)CCCCC(c3ccccc3)c3ccccc3)CC2)cc1 [SH-123A]", "endpoint": "IC50", "observed": "0.07 µM"}
{"molecule": "O=C(/C=C/c1ccc2c(c1)OCO2)N1CCN(C(=O)CCCCC(c2ccccc2)c2ccccc2)CC1 [SH-123B]", "endpoint": "IC50", "observed": "0.13 µM"}
